Recorded values, source patent US20250019437A1.

- tested_on: T1, human TREM2 (triggering receptor expressed on myeloid cells 2) (human) (UniProt Q9NZC2)
- T1 sequence (looked up): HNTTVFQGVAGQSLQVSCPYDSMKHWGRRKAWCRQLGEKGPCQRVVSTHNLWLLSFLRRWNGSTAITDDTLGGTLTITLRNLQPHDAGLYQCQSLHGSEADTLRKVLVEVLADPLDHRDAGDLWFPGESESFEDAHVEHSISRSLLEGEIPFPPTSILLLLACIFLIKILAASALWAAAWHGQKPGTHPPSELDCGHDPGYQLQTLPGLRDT
- test_details: 2nd screen, 2 nM Ab
measurement_name: Binding Signal (fold over 6E7 parental antibody) (fold)
Quick reminder: number only, in fold, skip the unit.

Using the record for 6E7 antibody affinity modulation variant V63 (antibody, V domains shown) VH: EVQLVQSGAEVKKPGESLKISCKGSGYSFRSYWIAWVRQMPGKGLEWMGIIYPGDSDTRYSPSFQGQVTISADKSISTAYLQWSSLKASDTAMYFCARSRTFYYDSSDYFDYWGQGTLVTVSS VL: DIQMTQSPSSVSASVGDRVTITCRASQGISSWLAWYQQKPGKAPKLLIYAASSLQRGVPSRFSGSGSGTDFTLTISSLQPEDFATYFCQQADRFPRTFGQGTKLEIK , report its Binding Signal (fold over 6E7 parental antibody).
4.91

Continue with 6E7 antibody affinity modulation variant V50 (antibody, V domains shown) VH: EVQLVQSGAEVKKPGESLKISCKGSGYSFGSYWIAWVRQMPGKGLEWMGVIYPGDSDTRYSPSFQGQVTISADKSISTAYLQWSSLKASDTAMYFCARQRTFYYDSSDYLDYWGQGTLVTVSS VL: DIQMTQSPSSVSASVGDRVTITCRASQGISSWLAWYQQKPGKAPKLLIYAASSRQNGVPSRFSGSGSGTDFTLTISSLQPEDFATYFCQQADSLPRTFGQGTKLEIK
3.39

Continue with 6E7 antibody affinity modulation variant V75 (antibody, V domains shown) VH: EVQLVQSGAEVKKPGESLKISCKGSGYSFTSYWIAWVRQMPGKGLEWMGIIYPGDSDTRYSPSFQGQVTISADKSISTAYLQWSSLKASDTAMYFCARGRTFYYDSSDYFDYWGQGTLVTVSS VL: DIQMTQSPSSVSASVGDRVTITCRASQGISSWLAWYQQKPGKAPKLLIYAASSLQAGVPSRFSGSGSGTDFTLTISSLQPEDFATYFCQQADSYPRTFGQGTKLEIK
3.74

Continue with 6E7 antibody affinity modulation variant V5 (antibody, V domains shown) VH: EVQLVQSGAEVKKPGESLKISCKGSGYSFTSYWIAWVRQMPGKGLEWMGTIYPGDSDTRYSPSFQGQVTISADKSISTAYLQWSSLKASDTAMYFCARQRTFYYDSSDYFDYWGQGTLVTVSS VL: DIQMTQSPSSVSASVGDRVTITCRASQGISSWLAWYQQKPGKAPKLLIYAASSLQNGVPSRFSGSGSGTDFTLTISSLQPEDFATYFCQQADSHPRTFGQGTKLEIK
1.25

Continue with 6E7 antibody affinity modulation variant V25 (antibody, V domains shown) VH: EVQLVQSGAEVKKPGESLKISCKGSGYSFGSYWIAWVRQMPGKGLEWMGLIYPGDSDTRYSPSFQGQVTISADKSISTAYLQWSSLKASDTAMYFCARSRTFYYDSSDYFDYWGQGTLVTVSS VL: DIQMTQSPSSVSASVGDRVTITCRASQGISSWLAWYQQKPGKAPKLLIYAASSLANGVPSRFSGSGSGTDFTLTISSLQPEDFATYFCQQADSMPRTFGQGTKLEIK
3.15

Continue with 6E7 antibody affinity modulation variant V77 (antibody, V domains shown) VH: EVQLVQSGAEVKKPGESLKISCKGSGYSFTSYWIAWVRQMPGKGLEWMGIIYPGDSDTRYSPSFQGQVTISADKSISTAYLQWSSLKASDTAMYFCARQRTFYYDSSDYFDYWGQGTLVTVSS VL: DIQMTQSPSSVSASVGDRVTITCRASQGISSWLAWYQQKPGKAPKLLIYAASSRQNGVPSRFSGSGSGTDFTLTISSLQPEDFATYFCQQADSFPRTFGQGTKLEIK
0.83

Continue with 6E7 antibody affinity modulation variant V62 (antibody, V domains shown) VH: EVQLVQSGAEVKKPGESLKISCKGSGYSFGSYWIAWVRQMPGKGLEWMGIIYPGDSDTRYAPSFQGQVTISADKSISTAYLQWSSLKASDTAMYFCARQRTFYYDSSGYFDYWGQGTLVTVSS VL: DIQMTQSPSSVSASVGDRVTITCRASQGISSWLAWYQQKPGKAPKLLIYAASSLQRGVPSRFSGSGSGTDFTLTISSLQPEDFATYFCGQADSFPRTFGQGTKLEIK
1.87
